These records show MIC for E. coli ATCC 25922.
Answer with the value and then the unit.

Below are worked cases with known answers.
# compound, readout_value
measured = [
    ("C[C@H](O)c1nccn1Cc1cc(-c2ccc(C#CC3CC4(C3)CN(Cc3ncco3)C4)cc2)on1", "1 µg/mL"),
    ("C[C@H](O)c1nccn1Cc1cc(-c2ccc(C#CC3=CCN(C(=O)c4ccncc4)CC3)cc2)on1", "1 µg/mL"),
    ("C[C@H](O)c1nccn1Cc1cc(-c2ccc(C#CC3=CCN(CCC#N)CC3)cc2)on1", "1 µg/mL"),
]

Dear colleague, could you send me MIC for each of the items below? Thanks.
1. C[C@H](O)c1nccn1Cc1cc(-c2ccc(C#CC3CC4(C3)CN(C(N)=O)C4)cc2)on1
2. COCCC(=O)N1CC=C(C#Cc2ccc(-c3cc(Cn4ccnc4[C@H](C)O)no3)cc2)CC1
3. C[C@H](O)c1nccn1Cc1cc(-c2ccc(C#CC3=CCN(C(=O)c4ccccn4)CC3)cc2)on1
4. C[C@H](O)c1nccn1Cc1cc(-c2ccc(C#CC3=CCN(C(=O)C4COCCO4)CC3)cc2)on1 (some centres unmarked)
5. C[C@H](O)c1nccn1Cc1cc(-c2ccc(C#CC3=CCN(C(=O)C4(O)CC4)CC3)cc2)on1

Reply text:
["2 µg/mL", "1 µg/mL", "1 µg/mL", "1 µg/mL", "2 µg/mL"]
